Target: immobilized Aβ16 (Homo sapiens, UniProt P05067)
Construct: purchased Biopeptide (San Diego, CA, USA); host or cells: chemical synthesis
Sequence (P05067 with tags, fused parts or gaps limits assumed): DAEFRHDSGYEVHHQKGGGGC
Experiment: Direct binding assay: surface plasmon resonance, tetrapeptides over immobilized Aβ16-G4-C
Conditions: Table S2; SPR, immobilized Aβ16, 25 °C, 10 mM HEPES pH 6.8, Ka = kon/koff, mean±SD of three independent measurements
Where a SMILES comes first, the peptide text is derived from it.
measured.parameter: Ka × 10^-2 M^-1

Some entries whose results are on file:
compound	subject.of.test	Ka × 10^-2 M^-1
CC(=O)N[C@@H](Cc1c[nH]cn1)C(=O)N[C@@H](C)C(=O)N[C@@H](CCC(=O)O)C(=O)N[C@@H](CCC(=O)O)C(N)=O [Ac-HAEE-NH2] (Ac-HAEE-NH2)	immobilized Aβ16 (Homo sapiens, UniProt P05067)	110±40 × 10^-2 M^-1
CC(=O)N[C@@H](CCC(=O)O)C(=O)N[C@@H](CC(=O)O)C(=O)N[C@@H](C)C(=O)N[C@@H](CCCCN)C(N)=O [#16, Ac-EDAK-NH2] (Ac-EDAK-NH2)	immobilized Aβ16 (Homo sapiens, UniProt P05067)	0.141±0.009 × 10^-2 M^-1
CC(=O)N[C@@H](CC(=O)O)C(=O)N[C@@H](CC(=O)O)C(=O)N[C@@H](C)C(=O)N[C@@H](CCCCN)C(N)=O [#4, Ac-DDAK-NH2] (Ac-DDAK-NH2)	immobilized Aβ16 (Homo sapiens, UniProt P05067)	7.3±0.3 × 10^-2 M^-1
CC(=O)N[C@@H](Cc1c[nH]cn1)C(=O)N[C@@H](C)C(=O)N[C@@H](CC(=O)O)C(=O)N[C@@H](CC(=O)O)C(N)=O [#1, Ac-HADD-NH2] (Ac-HADD-NH2)	immobilized Aβ16 (Homo sapiens, UniProt P05067)	3.08±0.08 × 10^-2 M^-1

Turning now to a further compound:
In: For the compound shown here, CC(=O)N[C@@H](CCCNC(=N)N)C(=O)N[C@@H](C)C(=O)N[C@@H](CC(=O)O)C(=O)N[C@@H](CC(=O)O)C(N)=O [Ac-RADD-NH2] (Ac-RADD-NH2) , give the reported Ka × 10^-2 M^-1.
Out: 800±100 × 10^-2 M^-1

----------
Entries and their log10 of kon values follow.
Target: immobilized Aβ16 (Homo sapiens)
Construct: purchased Biopeptide (San Diego, CA, USA); host or cells: chemical synthesis
Assay: Direct binding assay: surface plasmon resonance, tetrapeptides over immobilized Aβ16-G4-C
Settings: Table S2; SPR, immobilized Aβ16, 25 °C, 10 mM HEPES pH 6.8, mean±SD of three independent measurements; read-out: kon × M^-1 s^-1
Where a SMILES comes first, the peptide text is derived from it.
Could you please treat all values as log10 of kon in M⁻¹ s⁻¹?

Some entries whose results are on file:
molecule	subject.of.test	log10 of kon
CC(=O)N[C@@H](CC(=O)O)C(=O)N[C@@H](CC(=O)O)C(=O)N[C@@H](C)C(=O)N[C@@H](Cc1c[nH]cn1)C(N)=O [#2, Ac-DDAH-NH2] (Ac-DDAH-NH2)	immobilized Aβ16 (Homo sapiens)	-0.28
CC(=O)N[C@@H](CCC(=O)O)C(=O)N[C@@H](CC(=O)O)C(=O)N[C@@H](C)C(=O)N[C@@H](CCCCN)C(N)=O [#16, Ac-EDAK-NH2] (Ac-EDAK-NH2)	immobilized Aβ16 (Homo sapiens)	-0.87

In: For the molecule shown here, CC(=O)N[C@@H](CCCNC(=N)N)C(=O)N[C@@H](C)C(=O)N[C@@H](CCC(=O)O)C(=O)N[C@@H](CCC(=O)O)C(N)=O [Ac-RAEE-NH2] (Ac-RAEE-NH2) , give the reported log10 of kon.
Out: 0.18

In: # iterate: CC(=O)N[C@@H](CCCCN)C(=O)N[C@@H](C)C(=O)N[C@@H](CCC(=O)O)C(=O)N[C@@H](CC(=O)O)C(N)=O [#9, Ac-KAED-NH2] (Ac-KAED-NH2)
Out: 0.76

In: # iterate: CC(=O)N[C@@H](CCCNC(=N)N)C(=O)N[C@@H](C)C(=O)N[C@@H](CC(=O)O)C(=O)N[C@@H](CC(=O)O)C(N)=O [Ac-RADD-NH2] (Ac-RADD-NH2)
Out: 1.27

In: # iterate: CC(=O)N[C@@H](CC(=O)O)C(=O)N[C@@H](CC(=O)O)C(=O)N[C@@H](C)C(=O)N[C@@H](CCCCN)C(N)=O [#4, Ac-DDAK-NH2] (Ac-DDAK-NH2)
Out: 0.66

In: # iterate: CC(=O)N[C@@H](CC(=O)O)C(=O)N[C@@H](CCC(=O)O)C(=O)N[C@@H](C)C(=O)N[C@@H](CCCNC(=N)N)C(N)=O [#12, Ac-DEAR-NH2] (Ac-DEAR-NH2)
Out: 0.55

In: # iterate: CC(=O)N[C@@H](CCCCN)C(=O)N[C@@H](C)C(=O)N[C@@H](CC(=O)O)C(=O)N[C@@H](CCC(=O)O)C(N)=O [#15, Ac-KADE-NH2] (Ac-KADE-NH2)
Out: 0.34

In: # iterate: CC(=O)N[C@@H](CCC(=O)O)C(=O)N[C@@H](CC(=O)O)C(=O)N[C@@H](C)C(=O)N[C@@H](CCCNC(=N)N)C(N)=O [#18, Ac-EDAR-NH2] (Ac-EDAR-NH2)
Out: -0.89

In: # iterate: CC(=O)N[C@@H](Cc1c[nH]cn1)C(=O)N[C@@H](C)C(=O)N[C@@H](CC(=O)O)C(=O)N[C@@H](CC(=O)O)C(N)=O [#1, Ac-HADD-NH2] (Ac-HADD-NH2)
Out: 0.51

----------
Entries and their Kd values follow.
Molecular target: immobilized Aβ16 (Homo sapiens, UniProt P05067)
Construct: purchased Biopeptide (San Diego, CA, USA); host or cells: chemical synthesis
Assay: Direct binding assay: surface plasmon resonance, tetrapeptides over immobilized Aβ16-G4-C
Details: SPR, BIAcore T100, Aβ16-G4-C on CM5 chip, running buffer 10 mM HEPES pH 6.8, 1:1 Langmuir global fit, Kd = koff/kon; read-out: dissociation constant Kd
Experimental: Surface plasmon resonance (SPR) was utilized to detect the direct binding of the tetrapeptides to immobilized Aβ16-G4-C. All SPR experiments were carried out on a BIAcore T100 instrument (GE Healthcare, IL, USA). […] Then, the binding affinities of the immobilized Aβ16-G4-C to the following peptide-analytes were measured. […] Using the obtained data dissociation (Kd) constant was calculated from the ratios of the association (kon) and dissociation (koff) rate constants: Kd = koff/kon, Ka = kon/koff.
Where a SMILES comes first, the peptide text is derived from it.
Response body: numeric value in µM, unit text excluded.

> print(dat)
                                   compound  units  result
1  CC(=O)N[C@@H](Cc1c[nH]cn1)C(=O)N[C@@H](C)C(=O)N[C@@H](CCC(=O)O)C(=O)N[C@@H](CCC(=O)O)C(N)=O [Ac-HAEE-NH2] (Ac-HAEE-NH2)     µM      90

Turning now to a further compound:
In: For the compound shown here, CC(=O)N[C@@H](CCCNC(=N)N)C(=O)N[C@@H](C)C(=O)N[C@@H](CC(=O)O)C(=O)N[C@@H](CC(=O)O)C(N)=O [Ac-RADD-NH2] (Ac-RADD-NH2) , give the reported Kd.
Out: 13
